- Tested on: Geobacillus stearothermophilus spores (ATCC 7953)
- ASSAY_PROTOCOL: Fluorescence of enzyme substrates in culture media with Geobacillus stearothermophilus spores (96-well plate, 60° C.)
- Assay type: cell-based
- ASSAY_CONTEXT: 5 × 10^5 spores; culture media pH 6.7; substrate 0.3 mg/mL; 60° C.; +5 min
- Method: Culture media was prepared by dissolving by dissolving 2 g/L phytone peptone (BD BBL 211906) and 0.2 g/L L-alanine (Sigma 05129) in deionized water. […] Culture media (pH 6.7) containing 6′-chloro-4′-methylumbelliferyl α-D-glucopyranoside (0.3 mg/mL) was each added to eight wells (100 microliters per well) of a black 96-well microtiter plate with (NUNC #165301, Thermo Fisher Scientific, Waltham, Massachusetts). […] A Synergy Neo2 fluorescence plate reader (BioTek Company, Winooski, Vermont) was used. […]
METRIC_NAME: MEASURED FLUORESCENCE, RFU +5 min (RFU)

[[record]]
compound = "Cc1cc(=O)oc2cc(O[C@H]3O[C@H](CO)[C@@H](O)[C@H](O)[C@H]3O)ccc12 [MUG, reference compound]"
tested_on = "Geobacillus stearothermophilus spores (ATCC 7953)"
output_unit = "RFU"
readout_number = 3260

[[record]]
compound = "Cc1cc(=O)oc2cc(O[C@H]3O[C@H](CO)[C@@H](O)[C@H](O)[C@H]3O)c(Cl)cc12"
tested_on = "Geobacillus stearothermophilus spores (ATCC 7953)"
output_unit = "RFU"
readout_number = 53202

[[record]]
compound = "Cc1cc(=O)oc2c(F)c(O[C@H]3O[C@H](CO)[C@@H](O)[C@H](O)[C@H]3O)ccc12 [Example 8F-MUG, reference compound]"
tested_on = "Geobacillus stearothermophilus spores (ATCC 7953)"
output_unit = "RFU"
readout_number = 31069

[[record]]
compound = "Cc1cc(=O)oc2c(Cl)c(O[C@H]3O[C@H](CO)[C@@H](O)[C@H](O)[C@H]3O)ccc12"
tested_on = "Geobacillus stearothermophilus spores (ATCC 7953)"
output_unit = "RFU"
readout_number = 56949

